Origin of the recorded values: paper PMC6940941

Would you kindly list IC50 for each of these compounds?
EXPERIMENTAL SYSTEM: HDAC6 (Homo sapiens, UniProt Q9UBN7)
Sequence (Q9UBN7 1-1215): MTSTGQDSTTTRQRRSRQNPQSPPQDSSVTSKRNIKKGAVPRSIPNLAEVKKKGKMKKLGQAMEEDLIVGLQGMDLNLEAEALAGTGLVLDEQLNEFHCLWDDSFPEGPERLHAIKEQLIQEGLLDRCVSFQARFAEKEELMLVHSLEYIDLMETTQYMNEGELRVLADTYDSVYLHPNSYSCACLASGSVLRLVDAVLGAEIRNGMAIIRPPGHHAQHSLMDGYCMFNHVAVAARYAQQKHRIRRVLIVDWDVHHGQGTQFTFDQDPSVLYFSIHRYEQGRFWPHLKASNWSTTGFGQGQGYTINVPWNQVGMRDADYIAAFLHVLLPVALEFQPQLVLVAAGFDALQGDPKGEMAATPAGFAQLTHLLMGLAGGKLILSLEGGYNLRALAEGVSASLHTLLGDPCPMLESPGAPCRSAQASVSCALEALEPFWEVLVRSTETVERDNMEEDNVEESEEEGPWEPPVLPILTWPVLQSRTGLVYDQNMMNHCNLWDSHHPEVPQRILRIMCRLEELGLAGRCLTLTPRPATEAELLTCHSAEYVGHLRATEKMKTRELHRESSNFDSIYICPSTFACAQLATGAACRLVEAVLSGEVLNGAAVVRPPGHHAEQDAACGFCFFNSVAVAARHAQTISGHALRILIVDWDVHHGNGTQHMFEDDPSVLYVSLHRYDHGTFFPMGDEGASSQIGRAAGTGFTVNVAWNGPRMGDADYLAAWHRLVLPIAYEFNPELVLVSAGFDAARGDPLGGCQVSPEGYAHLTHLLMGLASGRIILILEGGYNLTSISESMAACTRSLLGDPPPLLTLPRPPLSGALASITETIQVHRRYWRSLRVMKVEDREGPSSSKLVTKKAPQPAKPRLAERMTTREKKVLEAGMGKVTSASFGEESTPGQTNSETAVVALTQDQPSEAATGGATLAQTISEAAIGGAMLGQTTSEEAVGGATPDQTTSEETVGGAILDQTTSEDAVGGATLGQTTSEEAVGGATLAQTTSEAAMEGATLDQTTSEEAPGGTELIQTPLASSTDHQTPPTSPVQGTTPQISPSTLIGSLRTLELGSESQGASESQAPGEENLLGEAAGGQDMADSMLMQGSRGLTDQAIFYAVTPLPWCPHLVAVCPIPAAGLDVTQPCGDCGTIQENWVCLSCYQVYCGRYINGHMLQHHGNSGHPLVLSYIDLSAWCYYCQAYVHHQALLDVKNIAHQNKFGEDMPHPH
The answer is to be given in nM; state only the numeric part.

### Prompt Entry CCCC1SC(=O)N(Cc2ccc(C(=O)NO)cc2)C1=O (stereo not drawn) has what IC50?
### Response 79300

### Prompt Quick check: IC50 of O=C(NO)c1ccc(CN2C(=O)SC(Cc3ccccc3)C2=O)cc1 (stereo not drawn) ?
### Response 628

### Prompt Name the reported IC50 value associated with the compound O=C(NO)c1ccc(CN2C(=O)CSC2=O)cc1
### Response 21
